Test system: UO-31
Test: NCI tumour cell line growth inhibition, 48 h
Active and inactive are the calls of the source. No stated cut-off is given here; in the data, active = GI50 up to about 1.1 µM and inactive = higher.
Labels: active, inactive

[
  {
    "compound": "Cc1cc(NC(=O)NC(=O)c2ccccc2[N+](=O)[O-])ccc1Oc1ncc(Cl)cn1",
    "cat": "active"
  },
  {
    "compound": "N#CCCC(CCC#N)(CCC#N)NO",
    "cat": "inactive"
  },
  {
    "compound": "Cc1cccc2nc3cc(O)cc(O)c3c(O)c12",
    "cat": "inactive"
  },
  {
    "compound": "COC(=O)/C(=C/c1ccc(OC)cc1)c1cc(OC)c(OC)c(OC)c1",
    "cat": "inactive"
  },
  {
    "compound": "C[C@]12CCc3nonc3C1CC[C@@H]1C2CC[C@]2(C)C(=O)/C(=N\\O)CC12 (some centres not stated)",
    "cat": "inactive"
  },
  {
    "compound": "OCC(O)C(O)C(O)C(O)c1nc2cc(Cl)ccc2[nH]1 (configuration not stated)",
    "cat": "inactive"
  },
  {
    "compound": "CN(C)Cc1[nH]c2ccccc2c1C(=O)c1ccccc1",
    "cat": "inactive"
  },
  {
    "compound": "Nc1ncnc2nc(N3CCN(CCO)CC3)[nH]c12",
    "cat": "inactive"
  },
  {
    "compound": "CSCCC(NC(=O)OCc1ccccc1)P(=O)(O)c1ccccc1 (configuration not stated)",
    "cat": "inactive"
  },
  {
    "compound": "O=C(O)C1CCc2nnc(-c3ccccc3)n21 (configuration not stated)",
    "cat": "inactive"
  },
  {
    "compound": "NS(=O)(=O)c1ccc(Nc2c3ccccc3nc3c(C(=O)NC(CO)(CO)CO)cccc23)cc1",
    "cat": "active"
  },
  {
    "compound": "CCOP(=O)(CCCC(O)CNc1cc(Cl)nc(N)n1)OCC (configuration not stated)",
    "cat": "inactive"
  },
  {
    "compound": "NC(=O)/C=C/C(=O)O",
    "cat": "inactive"
  },
  {
    "compound": "CCN1CC2(C)CC[C@@H](OC)C34[C@@H]2[C@H](OC(C)=O)C2(OCO[C@@]25C[C@H](OC)C2C[C@]3(O)[C@@H]5[C@H]2O)[C@H]14",
    "cat": "inactive"
  },
  {
    "compound": "Cn1c(COC(=O)NC2CCCCC2)c(COC(=O)NC2CCCCC2)c2ccc3ccccc3c21",
    "cat": "inactive"
  },
  {
    "compound": "COc1ccc2c(c1)C(=O)CC(N)C2 (configuration not stated)",
    "cat": "inactive"
  },
  {
    "compound": "C[C@]12CCC(=O)C=C1CC[C@@H]1C2CC[C@]2(C)c3nn(-c4ccccc4)nc3CC12 (some centres not stated)",
    "cat": "inactive"
  },
  {
    "compound": "CSc1nc(Nc2ccccc2Cl)c2c(N)nn(C)c2n1",
    "cat": "inactive"
  },
  {
    "compound": "COc1cc2c(oc(=O)c3cc(C)cc(OC)c32)c2c(C3OC(C)C(O)C(C)(O)C3O)ccc(O)c12 (configuration not stated)",
    "cat": "active"
  },
  {
    "compound": "N=C(N)c1ccc(/N=N\\c2c(O)ccc3cc4c(/N=N\\c5ccc(C(=N)N)cc5)c(O)ccc4cc23)cc1",
    "cat": "inactive"
  },
  {
    "compound": "N#CC1=C(Cl)NC(Cl)=C(C#N)C1c1c(Cl)cccc1Cl",
    "cat": "inactive"
  },
  {
    "compound": "CC(=O)OC1(C)C=CC(=O)C=C1",
    "cat": "inactive"
  }
]

---

Test system: SK-OV-3
Assay: NCI tumour cell line growth inhibition, 48 h
Calls of active or inactive are those of the source. Rule as the data show it: active = GI50 up to about 1.1 µM and inactive = higher.
recorded metric: GI50

[
  {
    "molecule": "CC(=O)OCC1OC(n2c(S)nc(-c3ccccc3)c(C#N)c2=O)C(OC(C)=O)C(OC(C)=O)C1OC(C)=O (centres undefined)",
    "recorded metric": "GI50",
    "recorded measurement": "> 100 µM (inactive)"
  },
  {
    "molecule": "CC(C)SC(NC(=O)C1C(C)(C)CCC1(C)C)C(=O)O (centres undefined)",
    "recorded metric": "GI50",
    "recorded measurement": "> 100 µM (inactive)"
  },
  {
    "molecule": "O=C1C(/C=N/CCc2c[nH]c3ccccc23)C(C(F)(F)F)=NN1c1nc2ccccc2s1 (centres undefined)",
    "recorded metric": "GI50",
    "recorded measurement": "25.3 µM (inactive)"
  },
  {
    "molecule": "CN1C2(c3ccccc3)C(C(=O)c3ccccc3)=C(C(=O)c3ccccc3)C1(c1ccccc1)c1c(-c3ccccc3)sc(-c3ccccc3)c12",
    "recorded metric": "GI50",
    "recorded measurement": "> 100 µM (inactive)"
  }
]

---

System: NCI-H23
Experiment: NCI tumour cell line growth inhibition, 48 h
Active and inactive are the calls of the source. Cut-off read from the data, not from the text of the source: active = GI50 up to about 1.1 µM and inactive = higher.
Labels: 1 = active, 0 = inactive

[
  {
    "compound": "CC(=O)c1c(C(F)(F)F)[n+]([O-])c2cc(Cl)c(Cl)cc2[n+]1[O-]",
    "cat": 1
  },
  {
    "compound": "CCCc1cc(=O)oc2c3c(c4c(c12)OC(C)(C)C=C4)O[C@@H](C)[C@H](C)C3=O",
    "cat": 0
  },
  {
    "compound": "COc1ccc(/C=N/n2c(-c3ccccc3)n[nH]c2=O)c(OC)c1",
    "cat": 0
  },
  {
    "compound": "CCOP(=O)(CCCC(O)CNc1cc(Cl)nc(N)n1)OCC (configuration not stated)",
    "cat": 0
  },
  {
    "compound": "CC1=NOC2(C1)C(=O)Nc1ccccc12 (configuration not stated)",
    "cat": 0
  },
  {
    "compound": "COc1ccc2c(c1)C(=O)Cc1ccccc1CC2",
    "cat": 0
  },
  {
    "compound": "COc1cccc(/C=N/NC(N)=O)c1O",
    "cat": 0
  },
  {
    "compound": "OC1CCCCCCCCCCC1SCCCCl (configuration not stated)",
    "cat": 0
  },
  {
    "compound": "CC(C)CNc1nc(N)nc(O)c1NC=O",
    "cat": 0
  },
  {
    "compound": "CC(CNCCCNCCNCCCNCO)[N+](=O)[O-] (configuration not stated)",
    "cat": 0
  },
  {
    "compound": "Cc1c(NC(=S)NC(=O)c2ccc([N+](=O)[O-])cc2)c(=O)n(-c2ccccc2)n1C",
    "cat": 0
  },
  {
    "compound": "Nc1ccccc1S(=O)(=O)c1ccccc1",
    "cat": 0
  }
]

---

Test system: CCRF-CEM
Assay: NCI tumour cell line growth inhibition, 48 h
The source made the active and inactive calls. Cut-off read from the data, not from the text of the source: active = GI50 up to about 1.1 µM and inactive = higher.
Recorded measurements of GI50, one per entry

[
  {
    "compound": "Cc1nc2ccccc2c(=O)n1NC(=O)c1ccccc1[N+](=O)[O-]",
    "GI50": "> 100 µM (inactive)"
  },
  {
    "compound": "CC(NNC(=O)CC(=O)N(C(=O)c1ccccc1)c1ccc(Cl)cc1)c1cc2ccccc2oc1=O (centres undefined)",
    "GI50": "> 10 µM (inactive)"
  },
  {
    "compound": "CCOC(=O)/C(C(C)=O)=C(\\OC(C)=O)c1ccncc1C(=O)O",
    "GI50": "> 100 µM (inactive)"
  },
  {
    "compound": "O=c1ccn(C2OC(CO)C(O)C2F)c(=O)n1Cc1ccccc1 (centres undefined)",
    "GI50": "> 100 µM (inactive)"
  },
  {
    "compound": "O=C1C(/C=N/CCc2c[nH]c3ccccc23)C(C(F)(F)F)=NN1c1nc2ccccc2s1 (centres undefined)",
    "GI50": "19.5 µM (inactive)"
  },
  {
    "compound": "COc1c2c(c3c(c1OC)c(=O)c1ccccc1n3C)OCO2",
    "GI50": "> 100 µM (inactive)"
  },
  {
    "compound": "COC(=O)c1c2c(cc3c1CC1(Cc4cc5c(c(C(C)=O)c4C1)CCC5)C3)CCC2 (centres undefined)",
    "GI50": "> 100 µM (inactive)"
  },
  {
    "compound": "NC1=NN(c2ccccc2)C(=O)C1C(=O)C(=O)NC1C2CC3CC(C2)CC1C3 (centres undefined)",
    "GI50": "> 100 µM (inactive)"
  },
  {
    "compound": "Cc1cc(Cl)ccc1N1C(=O)C(=O)C(c2nc3ccccc3s2)C(=O)C1=O",
    "GI50": "> 100 µM (inactive)"
  },
  {
    "compound": "O=C1NC(=O)C(CCO)(c2ccccc2)C(=O)N1",
    "GI50": "> 100 µM (inactive)"
  },
  {
    "compound": "CSc1nc(NC2OC(COC(C)=O)C(OC(C)=O)C(OC(C)=O)C2OC(C)=O)c2c(OC(C)=O)c(C)c(=O)oc2n1 (centres undefined)",
    "GI50": "> 100 µM (inactive)"
  },
  {
    "compound": "CS(=O)(=O)CC1=Nc2nnc(CCCCCCCc3nnc4n3C(=O)C(CS(C)(=O)=O)=N4)n2C1=O",
    "GI50": "> 100 µM (inactive)"
  },
  {
    "compound": "CC(=O)O[C@H]1C(=O)[C@@]2(C)[C@H]([C@H](OC(=O)c3ccccc3)[C@]3(O)C[C@H](OC(=O)[C@H](OC(=O)OCCC(O)CO)[C@@H](NC(=O)c4ccccc4)c4ccccc4)C(C)=C1C3(C)C)[C@]1(OC(C)=O)CO[C@@H]1C[C@@H]2O (some centres undefined)",
    "GI50": "< 0.01 µM (active)"
  },
  {
    "compound": "CCc1[nH]nc(C(N)=O)c1/N=N/N(C)C",
    "GI50": "28.2 µM (inactive)"
  },
  {
    "compound": "COc1cc(COC(=O)N2CC=CC2C(=O)O)c([N+](=O)[O-])cc1OC (centres undefined)",
    "GI50": "> 100 µM (inactive)"
  },
  {
    "compound": "COC(=O)c1sc(=S)sc1SCc1ccccc1CSc1sc(=S)sc1C(=O)OC",
    "GI50": "27.5 µM (inactive)"
  },
  {
    "compound": "Cc1ccc(C(=O)NN=C(/N=N/c2cccc(C)c2)c2ccc(N(C)C)cc2)cc1",
    "GI50": "> 100 µM (inactive)"
  },
  {
    "compound": "Cc1cccc2nc3cc(O)cc(O)c3c(O)c12",
    "GI50": "> 10 µM (inactive)"
  },
  {
    "compound": "CC(C)(C)[Si](C)(C)OCC1OC(n2cc(F)c(=O)[nH]c2=O)CC1O[Si](C)(C)C(C)(C)C (centres undefined)",
    "GI50": "4.17 µM (inactive)"
  }
]
